Each item that follows carries a reported IC50.
# Assay System: Abl kinase (Homo sapiens)
# Experiment Description: biochemical
# Settings: Abl IC50 (nM), Abl kinase (Invitrogen, 20 ng/well), Abltide 100 μM, ATP 500 nM, 37° C. for 60 minutes, top concentration 10 uM
Where a name gives a salt, the structure may show the parent alone.
Metric: IC50 (nM)

[[record]]
molecule = "Nc1nc2c(/C=C/c3cnc(Nc4ccc(S(=O)(=O)C5CCNCC5)cc4)nc3)cccc2s1 [Hydrochloride]"
numeric_readout = 39

[[record]]
molecule = "O=S(=O)(c1ccc(Nc2ncc(/C=C/c3cc(C(F)(F)F)cc4[nH]nnc34)cn2)cc1)N1CCCNCC1"
numeric_readout = 59

[[record]]
molecule = "O=C1Cc2c(/C=C/c3cnc(Nc4ccc(S(=O)(=O)C5CCNCC5)cc4)nc3)cccc2N1"
numeric_readout = 127

[[record]]
molecule = "CN(C)CCN(C1CCNCC1)S(=O)(=O)c1ccc(Nc2ncc(/C=C/c3cccc4[nH]ccc34)cn2)cc1"
numeric_readout = 25

[[record]]
molecule = "Nc1nc2ccc(/C=C/c3cnc(Nc4ccc(CCCN5CCCC5)cc4)nc3)cc2s1"
numeric_readout = 5150

[[record]]
molecule = "O=S(=O)(c1ccc(Nc2ncc(/C=C/c3ccc(Cl)c4[nH]ccc34)cn2)cc1)C1CCNCC1 [Hydrochloride]"
numeric_readout = 15

[[record]]
molecule = "Nc1nc2ccc(/C=C/c3cnc(Nc4ccc(SCCN5CCOCC5)cc4)nc3)cc2s1"
numeric_readout = 630

[[record]]
molecule = "O=S(=O)(NCCN1CCCC1)c1ccc(Nc2ncc(/C=C/c3cccc4[nH]ncc34)cn2)cc1"
numeric_readout = 7.6


====

# Assay System: Abl kinase (Homo sapiens, UniProt P00519)
# Sequence (P00519 whole entry): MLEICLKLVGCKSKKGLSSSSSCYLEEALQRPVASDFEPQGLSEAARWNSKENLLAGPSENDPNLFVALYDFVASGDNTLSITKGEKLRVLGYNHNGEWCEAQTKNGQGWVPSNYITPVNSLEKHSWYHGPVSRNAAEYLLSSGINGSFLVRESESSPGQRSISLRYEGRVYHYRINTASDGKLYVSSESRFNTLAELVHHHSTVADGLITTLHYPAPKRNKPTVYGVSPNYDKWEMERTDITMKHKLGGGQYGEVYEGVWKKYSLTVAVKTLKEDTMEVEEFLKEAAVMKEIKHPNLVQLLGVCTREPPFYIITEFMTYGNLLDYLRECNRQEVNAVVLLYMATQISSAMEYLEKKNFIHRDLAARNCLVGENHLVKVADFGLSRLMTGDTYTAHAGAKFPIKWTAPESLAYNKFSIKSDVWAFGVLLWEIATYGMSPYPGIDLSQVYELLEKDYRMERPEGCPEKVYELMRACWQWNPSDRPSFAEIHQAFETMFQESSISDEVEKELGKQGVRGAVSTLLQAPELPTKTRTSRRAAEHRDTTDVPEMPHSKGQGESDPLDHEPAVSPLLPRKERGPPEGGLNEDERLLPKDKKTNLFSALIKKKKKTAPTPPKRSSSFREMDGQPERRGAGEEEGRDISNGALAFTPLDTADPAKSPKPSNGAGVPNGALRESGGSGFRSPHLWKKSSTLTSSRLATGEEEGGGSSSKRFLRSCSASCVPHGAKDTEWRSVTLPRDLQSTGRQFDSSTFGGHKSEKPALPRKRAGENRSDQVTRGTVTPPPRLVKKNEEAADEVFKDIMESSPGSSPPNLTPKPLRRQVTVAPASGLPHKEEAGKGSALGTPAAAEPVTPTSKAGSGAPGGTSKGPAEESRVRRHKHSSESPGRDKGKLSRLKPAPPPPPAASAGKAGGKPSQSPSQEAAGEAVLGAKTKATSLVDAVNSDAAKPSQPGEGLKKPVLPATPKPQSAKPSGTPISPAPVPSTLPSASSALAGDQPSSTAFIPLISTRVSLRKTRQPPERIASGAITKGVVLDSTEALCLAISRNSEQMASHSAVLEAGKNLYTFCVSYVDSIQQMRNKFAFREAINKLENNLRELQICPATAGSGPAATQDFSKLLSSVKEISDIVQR
# Experiment Description: biochemical
# Settings: Abl IC50 (nM), Abl kinase (Invitrogen, 20 ng/well), Abltide 100 μM, ATP 500 nM, 37° C. for 60 minutes, top concentration 10 uM
Counter-ions that a name gives are not always drawn.
Each record gets a class by IC50: low-valued (below 20 nM), mid-valued (20 nM to below 200 nM), high-valued (200 nM or more)

[[record]]
compound = "Nc1nc2ccc(/C=C/c3cnc(Nc4ccc(S(=O)(=O)N5CCC(NCCO)CC5)cc4)nc3)cc2s1"
class_assignment = "mid-valued"

[[record]]
compound = "O=S(=O)(NCCO)c1ccc(Nc2ncc(/C=C/c3ccccc3)cn2)cc1N1CCNCC1 [trifluoroacetic acid salt]"
class_assignment = "high-valued"

[[record]]
compound = "Cc1nc(Nc2ccc(S(=O)(=O)NCCN3CCCC3)cc2)ncc1/C=C/c1cccc(O)c1"
class_assignment = "mid-valued"

[[record]]
compound = "O=S(=O)(c1ccc(Nc2ncc(/C=C/c3cccc4[nH]ncc34)cn2)cc1)N(CCO)C1CCNCC1"
class_assignment = "mid-valued"

[[record]]
compound = "Nc1nc2ccc(/C=C/c3cnc(Nc4ccc([S+]([O-])CCN5CCOCC5)cc4)nc3)cc2s1 (stereo not drawn)"
class_assignment = "high-valued"

[[record]]
compound = "O=S(=O)(NCCCO)c1ccc(Nc2ncc(/C=C/c3cccc(O)c3)cn2)cc1"
class_assignment = "low-valued"

[[record]]
compound = "Cc1nc(Nc2ccc(S(=O)(=O)C3CCNCC3)cc2)ncc1/C=C/c1cccc(O)c1 [hydrochloride]"
class_assignment = "low-valued"

[[record]]
compound = "O=S(=O)(c1ccc(Nc2ncc(/C=C/c3cccc(O)c3)cn2)cc1)C1CCNCC1"
class_assignment = "low-valued"

[[record]]
compound = "N=C(N)c1cccc(/C=C/c2cnc(Nc3ccc(S(=O)(=O)C4CCNCC4)cc3)nc2)c1"
class_assignment = "high-valued"

[[record]]
compound = "O=S(=O)(c1ccc(Nc2ncc(/C=C/c3ccc(O)c(O)c3)cn2)cc1)C1CCNCC1 [Hydrochloride]"
class_assignment = "mid-valued"

[[record]]
compound = "O=S(=O)(c1ccc(Nc2ncc(/C=C/c3cccc(O)c3)cn2)cc1F)N1CCNCC1"
class_assignment = "mid-valued"

[[record]]
compound = "NC1CCN(S(=O)(=O)c2ccc(Nc3ncc(/C=C/c4cccc5[nH]ccc45)cn3)cc2)CC1"
class_assignment = "low-valued"

[[record]]
compound = "O=S(=O)(NCCN1CCCC1)c1ccc(Nc2ncc(/C=C/c3cc(O)ccc3F)cn2)cc1"
class_assignment = "mid-valued"

[[record]]
compound = "O=S(=O)(c1ccc(Nc2ncc(/C=C/c3cccc4[nH]ccc34)cn2)cc1)C1CCN(CCO)CC1 [Hydrochloride]"
class_assignment = "low-valued"

[[record]]
compound = "O=S(=O)(c1ccc(Nc2ncc(/C=C/c3cccc4[nH]ncc34)cn2)cc1)C1CCNCC1 [trifluoroacetic acid salt]"
class_assignment = "low-valued"

[[record]]
compound = "O=S(=O)(NCCN1CCCC1)c1ccc(Nc2ncc(CCc3cc(O)ccc3Cl)cn2)cc1 [hydrochloride]"
class_assignment = "low-valued"

[[record]]
compound = "O=S(=O)(NCCO)c1ccc(Nc2ncc(/C=C/c3cccc(O)c3)cn2)cc1N1CCNCC1 [trifluoroacetic acid salt]"
class_assignment = "mid-valued"

[[record]]
compound = "Nc1nc2ccc(/C=C/c3cnc(Nc4ccc(S(=O)(=O)N5CCCNCC5)cc4F)nc3)cc2s1 [hydrochloride]"
class_assignment = "high-valued"

[[record]]
compound = "O=S(=O)(c1ccc(Nc2ncc(/C=C/c3ccnc4[nH]ccc34)cn2)cc1)C1CCNCC1"
class_assignment = "mid-valued"

[[record]]
compound = "NC1Cc2ccc(/C=C/c3cnc(Nc4ccc(S(=O)(=O)N5CCC(CO)CC5)cc4)nc3)cc2C1 (stereo not drawn)"
class_assignment = "high-valued"

[[record]]
compound = "Nc1nc2cc(/C=C/c3cnc(Nc4ccc(S(=O)(=O)C5CCNCC5)cc4)nc3)ccc2s1 [Hydrochloride]"
class_assignment = "mid-valued"

[[record]]
compound = "Nc1nc2ccc(/C=C/c3cnc(Nc4ccc(S(=O)(=O)N5CCC(O)CC5)cc4)nc3)cc2s1"
class_assignment = "high-valued"

[[record]]
compound = "O=S(=O)(c1ccc(Nc2ncc(/C=C/c3cccc(-c4cn[nH]c4)c3)cn2)cc1)C1CCNCC1 [Hydrochloride]"
class_assignment = "high-valued"

[[record]]
compound = "Nc1cccc(/C=C/c2cnc(Nc3ccc(S(=O)(=O)C4CCNCC4)cc3)nc2)c1 [Hydrochloride]"
class_assignment = "mid-valued"

[[record]]
compound = "O=S(=O)(c1ccc(Nc2ncc(/C=C/c3cccc4[nH]ccc34)cn2)cc1)N1CCCNCC1"
class_assignment = "low-valued"

[[record]]
compound = "O=S(=O)(NC1CCCNC1)c1ccc(Nc2ncc(/C=C/c3cccc(O)c3)cn2)cc1 (stereo not drawn) [Hydrochloride]"
class_assignment = "low-valued"

[[record]]
compound = "Nc1nc2ccc(/C=C/c3cnc(Nc4ccc(S(=O)(=O)CC5CCNCC5)cc4)nc3)cc2s1"
class_assignment = "mid-valued"

[[record]]
compound = "C=Cc1cnc(Nc2ccc(S(=O)(=O)C3CCN(C)CC3)cc2)nc1"
class_assignment = "high-valued"

[[record]]
compound = "O=S(=O)(c1ccc(Nc2ncc(/C=C/c3cccc4[nH]ccc34)cn2)cc1)C1CCNCC1"
class_assignment = "low-valued"

[[record]]
compound = "CN1CCC(S(=O)(=O)c2ccc(Nc3ncc(/C=C/c4cccc5[nH]ncc45)cn3)cc2)CC1"
class_assignment = "mid-valued"

